The entries below come with measured melting point values attached.

# count of solved cases: 2
Form: compound = CN1CC(C(=O)NC2NCCS2)CC2c3ccc(C(C)(C)C)c4[nH]cc(c34)CC21 (stereo not drawn) ; melting point = 243 to 247 °C

GET /value?item= CCNC(=O)c1ccc(N2CCN(Cc3cc4c(c(OCC)c3)OC(C)C(=O)N4)CC2)c(Cl)c1 (stereo not drawn) &field=melting point returns 187 to 199 °C

Moving on to the next compound.
So, O=C1CCNCCNC(=O)CCNCCN1 ? Its melting point was 198 to 199 °C

----------
# melting point per record follows

The reported value for CC(=O)Nc1cc(C(F)(F)F)no1 in terms of melting point is 108 to 110 °C

In plain terms, [N-]=[N+]=NC1CC(n2cnc3c(N4CCCC4)nc(N)nc32)OC1CO (stereo not drawn) has a documented melting point of 180 to 183 °C

melting point reading for CCCCCCC(C(=O)O)c1cccc(Sc2ccccc2C)c1O (stereo not drawn) : 90 to 91 °C

// melting point lookup, molecule = CC(=O)OCCCNc1nnc(NCCCOC(C)=O)c2c1C(=O)c1ccccc1C2=O , result: 142 to 145 °C

Entry O=C(CBr)CCc1ccc(Br)cc1 , melting point reported as 63 to 64 °C

Query OC[C@]1(c2ccccc2)O[C@H]1c1ccccc1 yields melting point of 88 to 89 °C

Lookup result for CN(C)c1nc2c(N)cc(Br)cc2n1C ; measured melting point: 137 °C

Noted for CC(c1cc2ccccc2s1)N(OCc1ccccc1)C(N)=O (stereo not drawn) : its melting point reads 126 °C

Looking up COc1ccccc1-n1c(=O)[nH]c2c(OC)cccc21 , I see its melting point listed as 246 to 247 °C

For record CC(C)(C)OC(=O)N[C@H](C(=O)N1CCC[C@H]1C(=O)NC1CCc2nc(N)ncc2C1)C(c1ccccc1)c1ccccc1 (stereo partly drawn) the listed melting point is 127 to 130 °C

---
In plain terms, CS(=O)(=O)N1CCC(Nc2nc(Nc3ccc(F)c(CN4CCOCC4)c3)nc(OCC(F)(F)F)n2)CC1 has a documented melting point of 96 to 98 °C

----------
Reported Metric: melting point

The value of melting point measured for the compound CC12CCC3c4ccc(O)cc4CC(Sc4ccc(Br)cc4)C3C1CCC2O (configuration not stated) turned out to be 165 to 166 °C

The recorded melting point for entry O=Cc1ccc(O)c(C=O)n1 equals 144 °C

Reported melting point for Cc1ccc(C(C#N)C(=O)C(=O)C(C#N)c2ccc(C)cc2)cc1 (configuration not stated) was 246 to 250 °C

Recorded result, COC(=O)c1ccc2scc(Br)c2c1 , melting point: 93 to 94 °C

// field: melting point; key: Cc1cccc2[nH]c(S(=O)Cc3cccn4ccnc34)nc12 (configuration not stated) ; value = 166 to 168 °C

Continuing:
// field: melting point; key: COc1ccc(CC[N+](=O)[O-])cc1OC ; value = 50 to 52 °C

Entry COc1cc(OC)c(-c2cccs2)cc1/C=C/C(=O)c1ccc(S(=O)(=O)Nc2ccccn2)cc1 ; melting point = 141 to 143 °C

----------
Entries and their measured melting point follow.

Before answering, review these 3 worked examples.
Record CC(C)c1ccc(-n2nc(O)c3[nH]c4cc(Cl)ccc4c(=O)c3c2=O)cc1 . Reported melting point: 323 to 326 °C

Please fill in: melting point reported for O=C1NS(=O)(=O)c2cc(O)cc(O)c21 = 286 °C

The compound listed as Cc1nc(-c2c(C)c(C#N)c3nc(C4CC4)oc3c2N2CC[C@H](N(C)C)C2)cs1 has a reported melting point of 167 to 168 °C

Others:
Record CCOC(=O)C1=C(C)N(C)C(C)=C(C(=O)OC)C1c1ccccc1C#N (stereo not drawn) . Reported melting point: 175 °C

The recorded melting point for CCn1c(=O)c2[nH]c(/C=C/c3cc(OC)c(OC)cc3Br)nc2n(CC)c1=O is > 285 °C

For CCNC(=S)Nc1cc(Cl)ccc1C the compound record lists melting point as 120 to 122 °C

Per the record, Cn1cc(OS(C)(=O)=O)c(=O)c2cccc(F)c21 has melting point of 207 to 209 °C

Value of measured melting point for the entry Cc1ccc2c(=O)c(OC(=O)c3ccccc3)cn(C)c2c1 : 200 to 202 °C

// melting point lookup, compound = COc1ccc(S(=O)(=O)Nc2cccc(C)c2NC(=O)c2ccccn2)cc1 , result: 180 to 182 °C

----------
melting point values for the compounds below.

Example cases with answers are listed next.
Summary for this compound, Nc1ccccc1C(=O)Nc1ccc(Br)cc1 : melting point is 139 to 144 °C

Consider CCc1cn(C2CC(O)C(CNC(=O)Cc3ccccc3N)O2)c(=O)[nH]c1=O (configuration not stated) . Its measured melting point is 195 to 196 °C

The compound CC(CSc1nn(-c2ccccc2)c2c1CCC2)C(=O)O (configuration not stated) showed melting point equal to 84 to 85 °C

melting point measured on CCn1nc2c(N)nc3ccccc3c2c1CO = 255 to 256 °C

The measured melting point associated with COC(=O)c1ccc(-c2nc(-c3ccc(C(F)(F)F)cc3)no2)cc1 reads 177 to 178 °C

Next:
// melting point value for CCc1nn(C2CCCC2)c2cc(C(=O)NCCC(=O)NO)ccc12 : 166 to 169 °C

Short answer for Oc1ccc2c(c1)COc1c-2cc2ccc(O)cc2c1-c1ccc(Cl)cc1 : melting point was 239 to 242 °C

----------
Consider the following compounds and their measured melting point readings.

Consider the reported melting point for these compounds:
Item: CN1c2ccc([N+](=O)[O-])cc2CS1(=O)=O | melting point: 214 to 216 °C

Form field melting point, entry O=C(c1cc(C(F)(F)F)nc2c(Cl)cc(Cl)cc12)c1cc(C(F)(F)F)nc2c(Cl)cc(Cl)cc12 : 193 to 194 °C

Lab note: COc1ccc(-c2nc(S(=O)c3ccc(C)cc3)n(C3CCCCO3)c2-c2ccc(OC)cc2)cc1 (centres undefined) gave melting point of 162 to 164 °C

So for N#CC(=Cc1ccc(Cl)cc1Cl)n1cncn1 , the logged melting point turned out to be 156 to 160 °C

compound CC(=O)N1C(=O)C(C(=O)c2cccs2)c2cc(Cl)ccc21 (centres undefined) , melting point observed: 168 to 170 °C

Measured melting point, Clc1ccccc1N1CCN=C1C(Cn1ccnc1)c1ccccc1 (centres undefined) : 118 to 122 °C

Note to self: melting point recorded for NC1=NS(=O)(=O)N=C1NCCCN(Cc1ccccc1)c1ccccn1 was 192 to 193 °C

The compound listed as CC(C)(C)c1ccc(C(=O)Nc2cn3nc(NCc4ccncc4)ccc3n2)cc1 has a reported melting point of 222 to 223 °C

---
The recorded melting point for entry CCNCc1ccc(O)c(C(CCN(C(C)C)C(C)C)c2ccccc2)c1 (centres undefined) equals 140 to 142 °C

Noted for CCCCc1ccc2nc(NC(=O)c3csc(CNC(=O)OC(C)(C)C)n3)sc2c1 : its melting point reads 143 to 144 °C

Entry C=C(c1ccccc1)c1cccc(C(C)C(=O)OC)c1 (centres undefined) ; melting point = 69 to 71 °C

melting point reported for this compound Cc1nc(-n2ccc(NCc3ccccc3)cc2=O)sc1C(=O)NCc1ccccc1 : 253 to 255 °C

melting point measured on CCOC(=O)/C=C/c1ccc(OCC(C)=O)cc1Oc1ncc(C(F)(F)F)cc1Cl = 167 to 168 °C

The compound listed as Oc1ccc(-c2nnc(CCCCCCc3ccccc3)o2)cc1 shows melting point equal to 125 to 129 °C

----------
# melting point annotations

Answered cases to consult:
Entry under test: CC1(C)COC(c2sccc2C2c3cc4c(cc3OCC2[N+](=O)[O-])OCO4)=N1 (centres undefined) . Its melting point was 138 to 140 °C

Notebook: COc1ccc(Cc2cc(SC#N)ccc2OC)cn1 , melting point read as 56 to 58 °C

Value of melting point reported for the molecule CCOC(=O)Cc1ccc(NC(=O)Nc2ccccc2Br)c(OC)n1 is 160 to 163 °C

Recorded melting point (molecule CCOC(=O)C(=O)Nc1c([N+](=O)[O-])ccc2ncccc12 ): 181 °C

Reported melting point ( CCOC(=O)Nc1ccc(N2CCC(=O)CC2)cc1 ) = 145 to 146 °C

With those in mind, consider the next molecule.
Record COc1nc(N)nc2c1ncn2[C@H]1C[C@H](O)[C@@H](CO)O1 , field melting point: 155 to 157 °C

----------
Each entry below carries its reported melting point.

These recorded examples may help you get a feel for the data.
Given item CCn1nc(C)c2c1C1=NC(C)CN1C(C)=N2 (centres undefined) , the value recorded as its melting point is 145 to 147 °C

Kindly note the recorded melting point for Cc1ccc2cccc(OCc3c(C)ccc(N(C)C(=O)CN4C(=O)c5ccccc5C4=O)c3C)c2n1 , which is 102 to 110 °C

Notebook: Cc1cc(SC(C)C)c(NC(=O)CN2CCN(CCSc3nc4cccc([N+](=O)[O-])c4o3)CC2)c(SC(C)C)n1 , melting point read as 57 to 59 °C

Let's switch to this compound now.
Entry C=CCSc1nc(O)nn1CC , melting point reported as 74 to 76 °C
